Would you kindly list protein stability index for each of these sequences?
tested on: Saccharomyces cerevisiae; experiment: protein stability index of tFT-peptide fusion (C-terminal peptide) (PSI (0-1 scale)); higher = more stable (slower turnover); conditions: genetic background: das1 deletion; temperature: 30 C
Hey, just send me the number, nothing else.

Exercise: For GLVATAVKQLPQ [VPS64 C-terminal 12 aa] , write its protein stability index.
Solution: 0.674

Exercise: For TFQKAQVEAEWV [TOA1 C-terminal 12 aa] , write its protein stability index.
Solution: 0.709

Exercise: For TSLGLTRTTIIP [CDC4 C-terminal 12 aa] , write its protein stability index.
Solution: 0.685

Exercise: For KIEVSSQESWGN [HSP26 C-terminal 12 aa] , write its protein stability index.
Solution: 0.68

Exercise: For PLGEVDLNSFKN [YHP1 C-terminal 12 aa] , write its protein stability index.
Solution: 0.691

Exercise: For RGSCDNWKKRQN [YBL044W C-terminal 12 aa] , write its protein stability index.
Solution: 0.726

Exercise: For SHAALGNETNSL [YHR052C-B C-terminal 12 aa] , write its protein stability index.
Solution: 0.683

Exercise: For GQSLTNTGGGCC [YPT1 C-terminal 12 aa] , write its protein stability index.
Solution: 0.707

Exercise: For RAVTPTGKKGRN [YOR296W C-terminal 12 aa] , write its protein stability index.
Solution: 0.675

Exercise: For GYWEDVFVHLAL [HMLALPHA1 C-terminal 12 aa] , write its protein stability index.
Solution: 0.769

Exercise: For TPTCQDPSLTEV [YJR038C C-terminal 12 aa] , write its protein stability index.
Solution: 0.725

Exercise: For HQKTKTLASLSI [NUP49 C-terminal 12 aa] , write its protein stability index.
Solution: 0.707

Exercise: For NQAIQYANEFQQ [HOG1 C-terminal 12 aa] , write its protein stability index.
Solution: 0.701

Exercise: For NQRKANDNKRRR [RRP17 C-terminal 12 aa] , write its protein stability index.
Solution: 0.719

Exercise: For CINCSRFIHNIN [YMR230W-A C-terminal 12 aa] , write its protein stability index.
Solution: 0.701

Exercise: For KPLYYRIYRFFC [MMP1 C-terminal 12 aa] , write its protein stability index.
Solution: 0.764

Exercise: For IATIENKFDFEI [YCR099C C-terminal 12 aa] , write its protein stability index.
Solution: 0.712

###

test system: Saccharomyces cerevisiae; assay: protein stability index of tFT-peptide fusion (C-terminal peptide) (PSI (0-1 scale)); higher = more stable (slower turnover); conditions: genetic background: wild type; temperature: 30 C
Think of 0.7 as a floor: if protein stability index stands on it or above, it is yes; beneath it, no.

Exercise: Reported protein stability index at or above 0.7? `RRAVLDSPSRRY`
Solution: yes

Exercise: Reported protein stability index at or above 0.7? `VVISRVLAIRLL`
Solution: no

Exercise: Reported protein stability index at or above 0.7? `LIAPSACNLFLF`
Solution: no

Exercise: Reported protein stability index at or above 0.7? `LLQLLGGFVFSA`
Solution: no

Exercise: Reported protein stability index at or above 0.7? `LHPPTHPQLPSS`
Solution: yes

Exercise: Reported protein stability index at or above 0.7? `RPGWSRGREAVA`
Solution: yes

Exercise: Reported protein stability index at or above 0.7? `STGAVGVSVCEG`
Solution: no

Exercise: Reported protein stability index at or above 0.7? `PPAPPLPSSPSP`
Solution: yes

Exercise: Reported protein stability index at or above 0.7? `GHRRLGNRWSVG`
Solution: no

Exercise: Reported protein stability index at or above 0.7? `HLLGYSLRREFL`
Solution: no

Exercise: Reported protein stability index at or above 0.7? `GVWTRTWSLQWI`
Solution: no

Exercise: Reported protein stability index at or above 0.7? `SEVRLMSVTSHS`
Solution: yes

Exercise: Reported protein stability index at or above 0.7? `VYLSSSLFPPSS`
Solution: yes

Exercise: Reported protein stability index at or above 0.7? `GTEFSNVITYLV`
Solution: no

Exercise: Reported protein stability index at or above 0.7? `DFWSEFILLCSV`
Solution: no

Exercise: Reported protein stability index at or above 0.7? `KGDKIEFVENKY`
Solution: no

Exercise: Reported protein stability index at or above 0.7? `GGRGWRSGTEGE`
Solution: no

Exercise: Reported protein stability index at or above 0.7? `YSRFALRPQLLV`
Solution: no

Exercise: Reported protein stability index at or above 0.7? `FSVGGLVDGRLW`
Solution: yes

Exercise: Reported protein stability index at or above 0.7? `RCETHKDHESNE`
Solution: yes

Exercise: Reported protein stability index at or above 0.7? `ILHRRCGLLLQI`
Solution: no

Exercise: Reported protein stability index at or above 0.7? `PPPPPTAPPPSR`
Solution: yes

Exercise: Reported protein stability index at or above 0.7? `EKKKKTKYKKKK`
Solution: yes

###

test system: Saccharomyces cerevisiae; assay: protein stability index of tFT-peptide fusion (C-terminal peptide) (PSI (0-1 scale)); higher = more stable (slower turnover); conditions: genetic background: wild type; temperature: 30 C
Think of 0.7 as a floor: if protein stability index stands on it or above, it is class 1; beneath it, class 0.

Exercise: Reported protein stability index at or above 0.7? `WLAGKAGASHRG`
Solution: class 0

Exercise: Reported protein stability index at or above 0.7? `WSSTPSCVPDLP`
Solution: class 1

Exercise: Reported protein stability index at or above 0.7? `CVDSRRCCSCFC`
Solution: class 0

###

test system: Saccharomyces cerevisiae; assay: protein stability index of tFT-peptide fusion (C-terminal peptide) (PSI (0-1 scale)); higher = more stable (slower turnover); details: genetic background: cdc34-1; temperature: 37 C
Think of 0.3 as a floor: if protein stability index stands on it or above, it is label 1; beneath it, label 0.

Exercise: Reported protein stability index at or above 0.3? `WAAVGIQLRLLF`
Solution: label 1

Exercise: Reported protein stability index at or above 0.3? `SSAPTIVIWRFS`
Solution: label 1

Exercise: Reported protein stability index at or above 0.3? `LLWALGLVLVEG`
Solution: label 0

Exercise: Reported protein stability index at or above 0.3? `RLSLCLAVLFLV`
Solution: label 1

Exercise: Reported protein stability index at or above 0.3? `LFWPPCYLFFCL`
Solution: label 1

Exercise: Reported protein stability index at or above 0.3? `VPPGCSLFAFIL`
Solution: label 1

Exercise: Reported protein stability index at or above 0.3? `ASSFYVDLVLVS`
Solution: label 1

Exercise: Reported protein stability index at or above 0.3? `GLFCCFLCLSVF`
Solution: label 0

Exercise: Reported protein stability index at or above 0.3? `GIANHAMVIVVL`
Solution: label 1

Exercise: Reported protein stability index at or above 0.3? `FEVLINIWFLSA`
Solution: label 0

Exercise: Reported protein stability index at or above 0.3? `RLLLLPGPLALQ`
Solution: label 1

Exercise: Reported protein stability index at or above 0.3? `FPRQFVYLPLLF`
Solution: label 1

Exercise: Reported protein stability index at or above 0.3? `YSVNSLFCKVFG`
Solution: label 1

Exercise: Reported protein stability index at or above 0.3? `LPPFGLFLFVFI`
Solution: label 1

Exercise: Reported protein stability index at or above 0.3? `AGALAVALPCIC`
Solution: label 1

Exercise: Reported protein stability index at or above 0.3? `GKWVWSSFVWFG`
Solution: label 1

Exercise: Reported protein stability index at or above 0.3? `FFSQLFLEIVAA`
Solution: label 0

Exercise: Reported protein stability index at or above 0.3? `VVFFFKFFLLRL`
Solution: label 0

Exercise: Reported protein stability index at or above 0.3? `FRCFVLPYFGRF`
Solution: label 1

Exercise: Reported protein stability index at or above 0.3? `SCIFVSSYFFVF`
Solution: label 1

Exercise: Reported protein stability index at or above 0.3? `AFPSSVILMVFS`
Solution: label 1

Exercise: Reported protein stability index at or above 0.3? `HPLYWRCVVVLN`
Solution: label 0

Exercise: Reported protein stability index at or above 0.3? `SVLVWVFGLFVI`
Solution: label 1

Exercise: Reported protein stability index at or above 0.3? `VPSPWVFSLFLH`
Solution: label 1

Exercise: Reported protein stability index at or above 0.3? `GLSWRLVWVVII`
Solution: label 0

Exercise: Reported protein stability index at or above 0.3? `VWFGGFVCSVLG`
Solution: label 1

Exercise: Reported protein stability index at or above 0.3? `WLVVGGVVLLVV`
Solution: label 0

Exercise: Reported protein stability index at or above 0.3? `WSMSSPPLLLAS`
Solution: label 1
